// provenance: ChEMBL document CHEMBL4364286

System: WM164
ASSAY_METHOD_TEXT: Antiproliferative activity against human WM164 cells after 72 hrs by MTT assay
Assay type: functional, cell-based
ASSAY_CONDITIONS: WM164, 72 h
Would you mind telling me the reported pIC50 of each entry?
In simple prose, pIC50 is minus the logarithm base ten of a concentration in moles per litre.

Could you share which pIC50 value was measured for COc1cc(C(=O)c2c[nH]c(-c3c[nH]c4cc(C)ccc34)n2)cc(OC)c1OC ? 7.63

Could you share which pIC50 value was measured for COc1cc(C(=O)c2c[nH]c(-c3c[nH]c4c(OC)cccc34)n2)cc(OC)c1OC ? 6.94

Could you share which pIC50 value was measured for COc1cc(C(=O)c2c[nH]c(-c3ccc4cc[nH]c4c3)n2)cc(OC)c1OC ? 8.42

Could you share which pIC50 value was measured for COc1cc(C(=O)c2c[nH]c(-c3c[nH]c4cc(F)ccc34)n2)cc(OC)c1OC ? 7.99

Could you share which pIC50 value was measured for COc1cc(C(=O)c2c[nH]c(-c3c[nH]c4ccc(Cl)cc34)n2)cc(OC)c1OC ? 6.80

Could you share which pIC50 value was measured for COc1cc(C(=O)c2c[nH]c(-c3c[nH]c4ccc(F)cc34)n2)cc(OC)c1OC ? 7.09

Could you share which pIC50 value was measured for COc1cc(C(=O)c2c[nH]c(-c3cccc4cc[nH]c34)n2)cc(OC)c1OC ? 6.36

Could you share which pIC50 value was measured for COc1cc(C(=O)c2c[nH]c(-c3c[nH]c4ccc(C)cc34)n2)cc(OC)c1OC ? 6.26

Could you share which pIC50 value was measured for COc1cc(C(=O)c2c[nH]c(-c3c[nH]c4cccc(Br)c34)n2)cc(OC)c1OC ? 7.17

Could you share which pIC50 value was measured for COc1cc(C(=O)c2c[nH]c(-c3ccc4[nH]ccc4c3)n2)cc(OC)c1OC ? 8.21

Could you share which pIC50 value was measured for COc1cc(C(=O)c2c[nH]c(-c3c[nH]c4cc(Br)ccc34)n2)cc(OC)c1OC ? 7.26

Could you share which pIC50 value was measured for COc1cc(C(=O)c2c[nH]c(-c3c[nH]c4cccc(C)c34)n2)cc(OC)c1OC ? 8.49

* * *

ASSAY_METHOD_TEXT: Intrinsic clearance in CD-1 mouse liver microsomes in presence of NADPH regenerating system measured up to 4 hrs by UPLC-MS analysis
Type: ADME, Microsome
ASSAY_CONDITIONS: read-out: CLH
Would you mind telling me the reported CLint scaled of each entry?
# output: bare number, implied unit mL/min/kg

Could you share which CLint scaled value was measured for COc1cc(C(=O)c2c[nH]c(-c3ccc4cc[nH]c4c3)n2)cc(OC)c1OC ? 10.3

Could you share which CLint scaled value was measured for COc1cc(C(=O)c2c[nH]c(-c3cccc4[nH]ccc34)n2)cc(OC)c1OC ? 11.3

Could you share which CLint scaled value was measured for COc1cc(C(=O)c2c[nH]c(-c3c[nH]c4cccc(C)c34)n2)cc(OC)c1OC ? 23.6

* * *

Tested on: M14
ASSAY_METHOD_TEXT: Antiproliferative activity against human M14 cells after 72 hrs by MTT assay
Type: functional, cell-based
ASSAY_CONDITIONS: M14, 72 h
ASSAY_ENDPOINT: IC50 (nM)
# output: bare number, implied unit nM

What value of IC50 on M14 does COc1cc(C(=O)c2c[nH]c(-c3c[nH]c4cccc(C)c34)n2)cc(OC)c1OC have? 1.7

What value of IC50 on M14 does COc1cc(C(=O)c2c[nH]c(-c3c[nH]c4cc(C)ccc34)n2)cc(OC)c1OC have? 21.7

What value of IC50 on M14 does COc1cc(C(=O)c2c[nH]c(-c3c[nH]c4c(C)cccc34)n2)cc(OC)c1OC have? 10.8

* * *

ASSAY_METHOD_TEXT: Half-life in CD-1 mouse liver microsomes in presence of NADPH regenerating system measured up to 4 hrs by UPLC-MS analysis
Type: ADME, Microsome
ASSAY_ENDPOINT: half-life
Form entry: enter the amount, then its unit.

Could you share which half-life value was measured for COc1cc(C(=O)c2c[nH]c(-c3cccc4[nH]ccc34)n2)cc(OC)c1OC ? 5.04 h

Could you share which half-life value was measured for COc1cc(C(=O)c2c[nH]c(-c3c[nH]c4cccc(C)c34)n2)cc(OC)c1OC ? 2.42 h

Could you share which half-life value was measured for COc1cc(C(=O)c2c[nH]c(-c3ccc4cc[nH]c4c3)n2)cc(OC)c1OC ? 5.56 h

* * *

Would you mind telling me the reported IC50 of each entry?
System: PC-3
ASSAY_METHOD_TEXT: Antiproliferative activity against human PC3 cells
Type: functional, cell-based

Could you share which IC50 value was measured for COc1cc2c(c(OC)c1OC)-c1ccc(OC)c(=O)cc1[C@@H](NC(C)=O)CC2 ? 10.4 nM

Could you share which IC50 value was measured for COc1cc(C(=O)c2c[nH]c(-c3c[nH]c4cccc(C)c34)n2)cc(OC)c1OC ? 5.2 nM

Could you share which IC50 value was measured for COc1cc(C(=O)c2c[nH]c(-c3cccc4[nH]ccc34)n2)cc(OC)c1OC ? 89.9 nM

* * *

Would you mind telling me the reported CLint scaled of each entry?
ASSAY_METHOD_TEXT: Intrinsic clearance in rat liver microsomes pre-incubated for 15 mins followed by addition of NADPH regenerating system by LC-MS analysis
Assay type: ADME, Microsome
ASSAY_CONDITIONS: read-out: CLH
# output: bare number, implied unit mL/min/kg

Could you share which CLint scaled value was measured for COc1cc(C(=O)c2c[nH]c(-c3c[nH]c4cccc(C)c34)n2)cc(OC)c1OC ? 26

Could you share which CLint scaled value was measured for COc1cc(C(=O)c2c[nH]c(-c3ccc4cc[nH]c4c3)n2)cc(OC)c1OC ? 3.1

Could you share which CLint scaled value was measured for COc1cc(C(=O)c2c[nH]c(-c3cccc4[nH]ccc34)n2)cc(OC)c1OC ? 8.9

* * *

System: M14
ASSAY_METHOD_TEXT: Antiproliferative activity against human M14 cells after 72 hrs by MTT assay
Format: functional, cell-based
ASSAY_CONDITIONS: M14, 72 h
Would you mind telling me the reported pIC50 of each entry?
In simple prose, pIC50 is minus the logarithm base ten of a concentration in moles per litre.

Could you share which pIC50 value was measured for COc1cc(C(=O)c2c[nH]c(-c3c[nH]c4ccc(Cl)cc34)n2)cc(OC)c1OC ? 7.19

Could you share which pIC50 value was measured for COc1cc(C(=O)c2c[nH]c(-c3ccc4cc[nH]c4c3)n2)cc(OC)c1OC ? 8.21

Could you share which pIC50 value was measured for COc1cc(C(=O)c2c[nH]c(-c3c[nH]c4c(OC)cccc34)n2)cc(OC)c1OC ? 7.47

Could you share which pIC50 value was measured for COc1cc2c(c(OC)c1OC)-c1ccc(OC)c(=O)cc1[C@@H](NC(C)=O)CC2 ? 7.78

Could you share which pIC50 value was measured for COc1cc(C(=O)c2c[nH]c(-c3c[nH]c4ccc(Br)cc34)n2)cc(OC)c1OC ? 6.98

Could you share which pIC50 value was measured for COc1cc(C(=O)c2c[nH]c(-c3cccc4cc[nH]c34)n2)cc(OC)c1OC ? 6.62

Could you share which pIC50 value was measured for COc1cc(C(=O)c2c[nH]c(-c3c[nH]c4cc(Br)ccc34)n2)cc(OC)c1OC ? 7.39
